target: FOXO4 (Homo sapiens); construct: purchased OriGene Technologies TP760655; assay: Bio-layer Interferometry, FOXO4; format: binding; conditions: BLI, biotinylated ES2 immobilized on streptavidin sensors, analyte 6.25-200 nM, 30°C, kd/ka
Sequence (P98177 whole entry): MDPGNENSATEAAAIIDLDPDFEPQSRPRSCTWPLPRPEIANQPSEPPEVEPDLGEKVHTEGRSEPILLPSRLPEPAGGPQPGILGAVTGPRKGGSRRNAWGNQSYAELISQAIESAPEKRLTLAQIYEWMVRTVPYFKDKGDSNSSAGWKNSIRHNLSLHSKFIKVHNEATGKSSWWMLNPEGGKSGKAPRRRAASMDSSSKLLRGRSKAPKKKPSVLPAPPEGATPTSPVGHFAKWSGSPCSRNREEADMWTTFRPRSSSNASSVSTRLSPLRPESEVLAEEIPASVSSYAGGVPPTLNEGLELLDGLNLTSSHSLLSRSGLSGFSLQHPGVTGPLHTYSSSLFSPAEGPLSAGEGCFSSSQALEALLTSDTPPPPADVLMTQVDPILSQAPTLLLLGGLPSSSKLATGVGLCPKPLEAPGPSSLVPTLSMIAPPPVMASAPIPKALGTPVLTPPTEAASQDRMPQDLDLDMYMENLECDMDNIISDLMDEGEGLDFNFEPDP
Where no end group is shown, it is not given here.
METRIC: Kd (nM)
I only need the number, in nM, no unit after it.

[Q] For PRKGGRRRRAWGRRRRRRRRRRRRRRAPRKRLTLA [ES2] , what is its reported Kd?
[A] 0.66

###

test system: senescent A375 cells; experiment: Peptide efficacy in culture (MTS), senescent cells; assay type: cell-based, human; conditions: doxorubicin (40 nM)-induced senescent A375 cells; peptide replenished daily for two days; MTS; best fit polynomial; read-out: IC50^sen, concentration to kill 50% of senescent cells
pIC50: −log10 of the molar value. Where no end group is shown, it is not given here.
Quick reference for pIC50 among some sequences

Reference set (3 entries):
PRKGGRRRRAWGRRRRRRRLRRRLRRAPRKRLTLA [ES2r1]    ~5.22
PRKGGSRRRAWGRRRYRRRLRRRLRRAPRKRLTLA [ES2r2]    ~5.05
YGRKKRRQRRRYGRKKRRQRRRYGRKKRRQRRR [ES1]    ~5.40

Now consider a different sequence.
[Q] For PRKGGRRRRAWGRRRRRRRRRRRRRRAPRKRLTLA [ES2] , what is its reported pIC50?
[A] ~5.15

###

Molecular target: TP53 (Homo sapiens)
Construct: purchased Millipore Sigma Aldrich 23-034
Sequence (P04637 whole entry): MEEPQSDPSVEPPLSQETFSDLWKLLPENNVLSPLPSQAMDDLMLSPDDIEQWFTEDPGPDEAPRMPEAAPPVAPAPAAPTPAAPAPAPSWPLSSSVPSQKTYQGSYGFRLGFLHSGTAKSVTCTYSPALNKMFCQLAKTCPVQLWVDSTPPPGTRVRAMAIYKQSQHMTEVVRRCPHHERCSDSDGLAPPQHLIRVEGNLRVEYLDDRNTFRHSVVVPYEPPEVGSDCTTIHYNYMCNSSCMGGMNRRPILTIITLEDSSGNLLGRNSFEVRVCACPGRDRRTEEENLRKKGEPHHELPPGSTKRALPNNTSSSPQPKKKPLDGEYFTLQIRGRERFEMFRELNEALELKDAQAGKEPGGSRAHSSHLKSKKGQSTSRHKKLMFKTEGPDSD
Assay: Bio-layer Interferometry, TP53
Format: binding
Conditions: BLI, biotinylated ES2 immobilized on streptavidin sensors, analyte 6.25-200 nM, 30°C, kd/ka
Description: Bio-layer Interferometry (BLI) measurements were performed on a ForteBio Octet RED384 instrument (Molecular Devices) using ForteBio Data Acquisition software 9.0 and ForteBio biosensors (Molecular Devices) according to the manufacturer's instructions. Kinetic assays were carried out at 30°C using settings of Standard Kinetics Acquisition rate (5.0 Hz, averaging by 20) at a sample plate shake speed of 1,000 rpm. […] Binding curves were analysed using ForteBio Data Analysis HT 10.0 evaluation software. […]
Where no end group is shown, it is not given here.
METRIC: pKd
Convention used: pKd is expressed as -log10 of the molar concentration.

[Q] GET /values?readout=pKd&system=TP53 (Homo sapiens)&item= PRKGGRRRRAWGRRRRRRRRRRRRRRAPRKRLTLA [ES2]
[A] 8.64

###

system: dividing A375 cells; experiment: Peptide efficacy in culture (MTS), dividing cells; format: cell-based, human; settings: peptide replenished daily for two days, MTS, best fit polynomial, read-out: IC50^div, concentration to kill 50% of dividing cells
Where no end group is shown, it is not given here.
Quick reference for IC50 among some sequences

Reference set (3 entries):
PRKGGRRRRAWGRRRRRRRLRRRLRRAPRKRLTLA [ES2r1]    ~13 µM
PRKGGRRRRAWGRRRRRRRRRRRRRRAPRKRLTLA [ES2]    ~17 µM
PRKGGSRRRAWGRRRYRRRLRRRLRRAPRKRLTLA [ES2r2]    > 20 µM

Now consider a different sequence.
[Q] GET /values?readout=IC50&system=dividing A375 cells&item= YGRKKRRQRRRYGRKKRRQRRRYGRKKRRQRRR [ES1]
[A] ~19 µM
